Would you mind telling me the reported Plant response rating, Quackgrass of each entry?
# System: quackgrass
# experiment: Test F preemergence test
# Type: in vivo, Elytrigia repens
# settings: 16 g ai/ha, preemergence; scale 0 to 100
Write the value as a bare number.

Q. Need Plant response rating, Quackgrass of CCn1nc(C(F)(F)F)c(CS(=O)(=O)c2cc(C)cc[n+]2[O-])c1OCC(F)(F)F [Compound 64] , thanks.
A. 40

Q. Need Plant response rating, Quackgrass of Cn1nc(C(F)(F)F)c(C[S+]([O-])c2ccc(F)c[n+]2[O-])c1OCC(F)(F)F (centres unmarked) [Compound 67] , thanks.
A. 60

Q. Need Plant response rating, Quackgrass of CC(Oc1c(CS(=O)(=O)c2cccc[n+]2[O-])c(C(F)(F)F)nn1C)C(F)(F)F (centres unmarked) [Compound 82] , thanks.
A. 70

Q. Need Plant response rating, Quackgrass of Cc1cc([S+]([O-])Cc2c(C(F)(F)F)nn(C)c2OCC(F)(F)F)[n+]([O-])cc1Cl (centres unmarked) [Compound 70] , thanks.
A. 75

Q. Need Plant response rating, Quackgrass of CC(Oc1c(C[S+]([O-])c2cccc[n+]2[O-])c(C(F)(F)F)nn1C)C(F)(F)F (centres unmarked) [Compound 77] , thanks.
A. 0
